system-name: microRNA 21
assay-comment: Binding affinity to 5'-fluorescein labeled pre-miR-21 (unknown origin) by fluorescence based assay
Catalogue of pKd readings, one per entry.
Note on pKd: it is the negative log10 of concentration, concentration in mol/L.

Noted for `CC(C)(C)c1ccc(S(=O)(=O)NCCc2nc(-c3nc(C(=O)NCCCNCCCCN)cs3)cs2)cc1` : its pKd reads 6.48

Noted for `NCCCCNCCCNC(=O)c1csc(-c2csc(CCNC(=O)CCCC[C@@H]3SC[C@@H]4NC(=O)N[C@@H]43)n2)n1` : its pKd reads 5.72

Noted for `C#CCCCCC(=O)NCCc1nc(-c2nc(C(=O)NCCCNCCCCN)cs2)cs1` : its pKd reads 5.73

Noted for `NCCCCNCCCNC(=O)c1csc(-c2csc(CCNS(=O)(=O)c3cccc4cccnc34)n2)n1` : its pKd reads 6.48

Noted for `NCCCCNCCCNC(=O)c1csc(-c2csc(CCNS(=O)(=O)c3ccc4ccccc4c3)n2)n1` : its pKd reads 6.48

Noted for `Cc1c(N)nc([C@H](CC(N)=O)NC[C@H](N)C(N)=O)nc1C(=O)N[C@H](C(=O)N[C@H](C)[C@@H](O)[C@H](C)C(=O)N[C@H](C(=O)NCCc1nc(-c2nc(C(=O)NCCCNCCCCN)cs2)cs1)[C@@H](C)O)[C@@H](O[C@@H]1O[C@@H](CO)[C@@H](O)[C@H](O)[C@@H]1O[C@@H]1O[C@H](CO)[C@@H](O)[C@H](OC(N)=O)[C@@H]1O)c1cnc[nH]1` : its pKd reads 4.90

Noted for `CN(C)c1ccc(/N=N/c2ccc(S(=O)(=O)NCCc3nc(-c4nc(C(=O)NCCCNCCCCN)cs4)cs3)cc2)cc1` : its pKd reads 7.12

Noted for `NCCCCNCCCNC(=O)c1csc(-c2csc(CCNC(=O)[C@@H](N)Cc3c[nH]cn3)n2)n1` : its pKd reads 5.77

Others:
Noted for `NCCCCNCCCNC(=O)c1csc(-c2csc(CCNC(=O)c3ccc4cccnc4n3)n2)n1` : its pKd reads 6.40

Noted for `NCCCCNCCCNC(=O)c1csc(-c2csc(CCNC(=O)[C@@H](N)CCCCN)n2)n1` : its pKd reads 6.08

----------
assay-comment: Antiproliferative activity against human MRC5 cells incubated for 72 hrs by WST-1 assay
Format: toxicity, cell-based
Catalogue of IC50 at 72 h readings, one per entry.

Below, each entry is followed by its recorded IC50 at 72 h result.
Noted for `NCCCCNCCCNC(=O)c1csc(-c2csc(CCN)n2)n1` : its IC50 at 72 h reads 16.6 µM

Noted for `NCCCCNCCCNC(=O)c1csc(-c2csc(CCNCc3ccc4scnc4c3)n2)n1` : its IC50 at 72 h reads > 100 µM

In the following, a different compound is considered.
Noted for `CN(C)c1ccc(/N=N/c2ccc(S(=O)(=O)NCCc3nc(-c4nc(C(=O)NCCCNCCCCN)cs4)cs3)cc2)cc1` : its IC50 at 72 h reads > 100 µM

----------
assay-comment: Selectivity index, ratio of IC50 for inhibition of pre-miR-21 (unknown origin) dicer cleavage activity preincubated for 30 mins followed by MCF-7 cell lysates addition and measured after 30 to 60 mins by FRET method to IC50 for inhibition of pre-miR-21 (unknown origin) dicer cleavage activity preincubated for 30 mins followed by RNAase III addition and measured after 30 to 60 mins by FRET method
Would you mind labelling by Ratio IC50? At or over 4 is 1.0, under is 0.0.

Answered cases to consult:
(Q) Does the molecule `NCCCCNCCCNC(=O)c1csc(-c2csc(CCNCc3ccc4[nH]cnc4c3)n2)n1` have recorded Ratio IC50 that is 4 or more?
(A) 0.0

(Q) Does the molecule `NCCCCNCCCNC(=O)c1csc(-c2csc(CCNS(=O)(=O)c3cc4ccccc4s3)n2)n1` have recorded Ratio IC50 that is 4 or more?
(A) 1.0

(Q) Does the molecule `CC(C)(C)c1ccc(S(=O)(=O)NCCc2nc(-c3nc(C(=O)NCCCNCCCCN)cs3)cs2)cc1` have recorded Ratio IC50 that is 4 or more?
(A) 1.0

Others:
(Q) Does the molecule `NCCCCNCCCNC(=O)c1csc(-c2csc(CCNCc3ccc4scnc4c3)n2)n1` have recorded Ratio IC50 that is 4 or more?
(A) 0.0

(Q) Does the molecule `NCCCCNCCCNC(=O)c1csc(-c2csc(CCNCc3ccccc3)n2)n1` have recorded Ratio IC50 that is 4 or more?
(A) 1.0

(Q) Does the molecule `CN(C)c1ccc(/N=N/c2ccc(S(=O)(=O)NCCc3nc(-c4nc(C(=O)NCCCNCCCCN)cs4)cs3)cc2)cc1` have recorded Ratio IC50 that is 4 or more?
(A) 1.0

----------
assay-comment: Antiproliferative activity against human N13-1300 cells incubated for 72 hrs by WST-1 assay
Type: functional, cell-based
settings: N13-1300, 72 h
observation-type: pIC50
Note on pIC50: it is the negative log10 of concentration, concentration in mol/L.

Below, each entry is followed by its recorded pIC50 result.
Noted for `NCCCCNCCCNC(=O)c1csc(-c2csc(CCN)n2)n1` : its pIC50 reads 4.17

Noted for `CN(C)c1ccc(/N=N/c2ccc(S(=O)(=O)NCCc3nc(-c4nc(C(=O)NCCCNCCCCN)cs4)cs3)cc2)cc1` : its pIC50 reads 4.66

Others:
Noted for `NCCCCNCCCNC(=O)c1csc(-c2csc(CCNCc3ccc4scnc4c3)n2)n1` : its pIC50 reads 4.61

Noted for Cn1nnc2c(C(N)=O)ncn2c1=O [TEMOZOLOMIDE] : its pIC50 reads 4.68

----------
Catalogue of IC50 readings, one per entry.
assay-comment: Antiproliferative activity against human N15-0385 cells incubated for 72 hrs by WST-1 assay
Type: functional, cell-based
settings: N15-0385, 72 h
Reply with just the number (in µM).

Noted for `NCCCCNCCCNC(=O)c1csc(-c2csc(CCNCc3ccc4scnc4c3)n2)n1` : its IC50 reads 44.7

In the following, a different compound is considered.
Noted for `CN(C)c1ccc(/N=N/c2ccc(S(=O)(=O)NCCc3nc(-c4nc(C(=O)NCCCNCCCCN)cs4)cs3)cc2)cc1` : its IC50 reads 37.1

----------
system-name: microRNA 21
assay-comment: Inhibition of pre-miR-21 (unknown origin) dicer cleavage activity preincubated for 30 mins followed by RNAase III addition and measured after 30 to 60 mins by FRET method
Assay type: functional
Catalogue of pIC50 readings, one per entry.
Note on pIC50: it is the negative log10 of concentration, concentration in mol/L.

Noted for `NCCCCNCCCNC(=O)c1csc(-c2csc(CCNCc3ccc4scnc4c3)n2)n1` : its pIC50 reads 5.43

Noted for `CN(C)c1ccc(/N=N/c2ccc(S(=O)(=O)NCCc3nc(-c4nc(C(=O)NCCCNCCCCN)cs4)cs3)cc2)cc1` : its pIC50 reads 5.79

Noted for `NCCCCNCCCNC(=O)c1csc(-c2csc(CCNCc3ccc4[nH]cnc4c3)n2)n1` : its pIC50 reads 4.69

Noted for `NCCCCNCCCNC(=O)c1csc(-c2csc(CCNS(=O)(=O)c3cc4ccccc4s3)n2)n1` : its pIC50 reads 4.93

Noted for `NCCCCNCCCNC(=O)c1csc(-c2csc(CCNC(=O)CCCC[C@@H]3SC[C@@H]4NC(=O)N[C@@H]43)n2)n1` : its pIC50 reads 4.42

Noted for `Cc1nc(C)c(S(=O)(=O)NCCc2nc(-c3nc(C(=O)NCCCNCCCCN)cs3)cs2)s1` : its pIC50 reads 4.12

Noted for `NCCCCNCCCNC(=O)c1csc(-c2csc(CCNS(=O)(=O)c3c[nH]cn3)n2)n1` : its pIC50 reads 4.69

Noted for `CC(C)(C)c1ccc(S(=O)(=O)NCCc2nc(-c3nc(C(=O)NCCCNCCCCN)cs3)cs2)cc1` : its pIC50 reads 4.79

In the following, a different molecule is considered.
Noted for `NCCCCNCCCNC(=O)c1csc(-c2csc(CCNCc3ccccc3)n2)n1` : its pIC50 reads 4.51

----------
system-name: microRNA 21
assay-comment: Binding affinity to 5'-fluorescein labeled pre-miR-21 (unknown origin) by fluorescence based assay
Catalogue of pKd readings, one per entry.
Note on pKd: it is the negative log10 of concentration, concentration in mol/L.

pKd value, target or system microRNA 21, for `Cc1ccc(S(=O)(=O)NCCc2nc(-c3nc(C(=O)NCCCNCCCCN)cs3)cs2)cc1` : 6.48

pKd value, target or system microRNA 21, for `NCCCCNCCCNC(=O)c1csc(-c2csc(CCNS(=O)(=O)c3cc4ccccc4s3)n2)n1` : 6.48

In the following, a different molecule is considered.
pKd value, target or system microRNA 21, for `NCCCCNCCCNC(=O)c1csc(-c2csc(CCN)n2)n1` : 5.44
